# system_name: AbaR (Acinetobacter nosocomialis, UniProt A0A0N8YGA2)
# Sequence (A0A0N8YGA2 whole entry): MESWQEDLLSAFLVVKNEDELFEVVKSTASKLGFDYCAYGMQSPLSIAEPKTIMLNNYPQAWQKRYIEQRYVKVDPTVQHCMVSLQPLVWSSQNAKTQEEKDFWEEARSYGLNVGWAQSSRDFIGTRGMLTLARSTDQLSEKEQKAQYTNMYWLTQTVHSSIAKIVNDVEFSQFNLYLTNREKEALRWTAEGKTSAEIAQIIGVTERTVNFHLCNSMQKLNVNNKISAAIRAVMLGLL
# procedure_summary: AbaR antagonism reporter gene
# Type: cell-based, Acinetobacter baumannii
# condition_description: AHLs over 10 nM – 100 µM against (R)-OH-dDHL at 0.70 µM
Collected IC50 values appear next to each entry.

test_smiles	bound_sign	IC50 (µM)
O=C(Cc1ccccc1Cl)N[C@H]1CCOC1=O	=	18.5
O=C(Cc1ccc(F)cc1)N[C@H]1CCOC1=O	>	25
O=C(Cc1ccc(Cl)cc1)N[C@H]1CCOC1=O	=	16.7

====

# system_name: AbaR (Acinetobacter nosocomialis, UniProt A0A0N8YGA2)
# procedure_summary: AbaR antagonism reporter gene
# Assay type: cell-based, Acinetobacter baumannii
metric_name: inhibition at 100 µM (%)

test_smiles	system_name	metric_name	recorded_result
O=C(Cc1ccc(Br)cc1)N[C@H]1CCOC1=O	AbaR (Acinetobacter nosocomialis, UniProt A0A0N8YGA2)	inhibition at 100 µM	71
CCCCCCC(=O)N[C@H]1CCOC1=O	AbaR (Acinetobacter nosocomialis, UniProt A0A0N8YGA2)	inhibition at 100 µM	75
O=C(Cc1ccccc1Cl)N[C@H]1CCOC1=O	AbaR (Acinetobacter nosocomialis, UniProt A0A0N8YGA2)	inhibition at 100 µM	83
O=C(Cc1ccc(Cl)cc1)N[C@H]1CCOC1=O	AbaR (Acinetobacter nosocomialis, UniProt A0A0N8YGA2)	inhibition at 100 µM	78
CCCCCC(=O)CC(=O)N[C@H]1CCOC1=O	AbaR (Acinetobacter nosocomialis, UniProt A0A0N8YGA2)	inhibition at 100 µM	73
O=C(Cc1ccccc1Br)N[C@H]1CCOC1=O	AbaR (Acinetobacter nosocomialis, UniProt A0A0N8YGA2)	inhibition at 100 µM	97
O=C(Cc1cccc([N+](=O)[O-])c1)N[C@H]1CCOC1=O	AbaR (Acinetobacter nosocomialis, UniProt A0A0N8YGA2)	inhibition at 100 µM	70
O=C(Cc1cccc(I)c1)N[C@H]1CCOC1=O	AbaR (Acinetobacter nosocomialis, UniProt A0A0N8YGA2)	inhibition at 100 µM	91
O=C(Cc1cccc(Cl)c1)N[C@H]1CCOC1=O	AbaR (Acinetobacter nosocomialis, UniProt A0A0N8YGA2)	inhibition at 100 µM	83
O=C(Cc1cccc(Br)c1)N[C@H]1CCOC1=O	AbaR (Acinetobacter nosocomialis, UniProt A0A0N8YGA2)	inhibition at 100 µM	90
O=C(Cc1ccccc1I)N[C@H]1CCOC1=O	AbaR (Acinetobacter nosocomialis, UniProt A0A0N8YGA2)	inhibition at 100 µM	80
O=C(CCc1ccccc1)N[C@H]1CCOC1=O	AbaR (Acinetobacter nosocomialis, UniProt A0A0N8YGA2)	inhibition at 100 µM	72
O=C(Cc1ccc(I)cc1)N[C@H]1CCOC1=O	AbaR (Acinetobacter nosocomialis, UniProt A0A0N8YGA2)	inhibition at 100 µM	91

====

# system_name: AbaR (Acinetobacter nosocomialis, UniProt A0A0N8YGA2)
# procedure_summary: AbaR agonism reporter gene
# Type: cell-based, Acinetobacter baumannii
# condition_description: 100 µM

compound	AbaR agonism (in words)
CCCCCCCCCCCCCC(=O)NC1CCOC1=O (stereo not shown)	limited AbaR agonism
CCCCCC(=O)CC(=O)N[C@H]1CCOC1=O	limited AbaR agonism
CCCCCCCCCC(=O)NC1CCOC1=O (stereo not shown)	limited AbaR agonism

====

Collected Activation [%] values appear next to each entry.
# system_name: AbaR (Acinetobacter nosocomialis)
# procedure_summary: AbaR agonism reporter gene
# Type: cell-based, Acinetobacter baumannii
# condition_description: AHLs at 100 µM, normalized to (R)-OH-dDHL at 100 µM (set to 100%); error ≤ ±10%
metric_name: Activation [%] (%)

compound	metric_name	recorded_result
CCCCCCCCCC(=O)NC1CCOC1=O (centres unmarked) [Compound A7, decanoyl-HL]	Activation [%]	3
CCCCCCCCCC(=O)CC(=O)N[C@H]1CCOC1=O [Compound 2]	Activation [%]	62
CCCCCCCCC[C@H](O)CC(=O)N[C@H]1CCOC1=O [(S)-OH-dDHL, N-(3’-hydroxydodecanoyl)-L-HL]	Activation [%]	90
CCCCCCCCC[C@@H](O)CC(=O)N[C@H]1CCOC1=O [(R)-OH-dDHL, N-(3’-hydroxydodecanoyl)-L-HL, reference compound]	Activation [%]	100
CCCCCCCCCCCCCC(=O)NC1CCOC1=O (centres unmarked) [Compound A8, tetradecanoyl-HL]	Activation [%]	9
